Assay: qHTS Assay for Lipid Storage Modulators (AID 1519)
Conditions: Drosophila S3 cells, BODIPY lipid droplet/cell ratio, laser cytometry; measured here: cell count channel max response; cells loaded with oleic acid
Results filed as inconclusive are left out.
valueType: max response (%)
Reply numerically in %, unit not repeated.

Query: Name the recorded max response for COC(=O)CCC(C)C1CCC2C3CC[C@H]4CC(O)CC[C@@]4(C)C3CC(O)[C@]12C (stereo partly drawn) .
Response: -3.87

Query: Same question, CC(C)/C(O)=C1/C(=O)OC(c2ccoc2)[C@@]2(C)C(O)C(O)[C@@]34OC5(C)OC67CC(C)(C(O)[C@@]6(O)C(O)[C@@]3(O5)C12)C(CC(=O)O)[C@@]74C (stereo partly drawn) this time
Response: -1.97

Query: Again, but for C[C@H]1[C@@H](O)[C@@H](C)\C=C/C=C\C=C/C=C\C=C/C=C\C=C/[C@@H](O[C@H]2O[C@@H](C)[C@@H](O)[C@@H](N)[C@@H]2O)C[C@@H]2O[C@](O)(C[C@@H](O)C[C@@H](O)[C@@H](O)CC[C@@H](O)C[C@@H](O)CC(=O)O[C@H]1C)C[C@@H](O)[C@H]2C(=O)O (stereo in doubt)
Response: 0.724

Query: For C=C[C@](C)(O)CCC1C(=C)CC(O)C2C(C)(C)CCCC12C (stereo partly drawn) then?
Response: 7.01

Query: Item: "CC(=O)OC/C=C(\C)CC/C=C(\C)CC/C=C(\C)CC/C=C(\C)CC/C=C(\C)CC/C=C(\C)CC/C=C(\C)CC/C=C(\C)CCC=C(C)C"
Response: 7.11

Query: And the next one, CC(C)=CC1C(CO)C1(C)C (stereo not drawn) ?
Response: 11.9

Query: Subsequent entry: CC(=O)OC1CC2C(C)(C)C(O)C=C[C@@]2(C)C2CC[C@@]3(C)C(c4ccoc4)OC(=O)C4OC43[C@]12C (stereo partly drawn)
Response: 21.3

Query: Now consider "COc1ccc(C(=O)/C=C/c2ccccc2)cc1" .
Response: -9.97

Query: Now consider CS(=O)(=O)c1ccc(C(O)C(CO)NC(=O)C(Cl)Cl)cc1 (stereo not drawn) and answer again.
Response: 3.52

Query: Next record, please: CC[C@H](CC[C@@H](C)C1CC[C@H]2[C@@H]3CC=C4C[C@@H](O)CC[C@]4(C)[C@H]3CC[C@]12C)C(C)C (stereo partly drawn)
Response: 43.5

Query: Entry to check: C[C@@]12CCC(=O)C[C@@H]1CC(=O)[C@H]1[C@H]3CCC[C@]3(C)C(=O)C[C@@H]12 (tested in a mixture with another compound)
Response: 2.78

Query: Next: "COc1ccc([C@@H]2CC(=O)c3c(O)cc(O[C@H]4O[C@@H](CO[C@H]5O[C@@H](C)[C@@H](O)[C@@H](O)[C@@H]5O)[C@@H](O)[C@@H](O)[C@@H]4O)cc3O2)cc1O"
Response: -12

Query: Again, but for Nc1nc2c(nc(Cl)n2C2OC(CO)C(O)C2O)c(=O)[nH]1 (stereo not drawn)
Response: 20

Query: What would you report for NCCCCC(NC(CCc1ccccc1)C(=O)O)C(=O)N1CCCC1C(=O)O (stereo not drawn) ?
Response: 11.1

Query: Another: C=C(C)C1CC=C(CO)CC1 (stereo not drawn)
Response: -1.53

Query: Consider next the compound "O=c1cc(-c2ccccc2)oc2cc(O)c(O)cc12" in the same way.
Response: -7.11

Query: Check "CC(C)(N=NC(C)(C)C(=N)N)C(=N)N" too.
Response: -8.52

Query: Entry to check: CCCCCCCCCCCCCCC(C(=O)O)C(O)(CC(=O)OC)C(=O)O (stereo not drawn)
Response: 16.5
